- assayed_target: mouse ADAMTS7 (Mus musculus, UniProt Q68SA9, E373Q)
- Construct: Full-length mouse Adamts7 1-1857 (Uniprot Q68SA9, WT or E373Q catalytic mutant); expressed in transfected cells; host or cells: Human Coronary Artery Smooth Muscle Cells (HCA-SMC, Lonza), adenovirus 50 MOI
- Sequence (Q68SA9 221-1657 E373Q): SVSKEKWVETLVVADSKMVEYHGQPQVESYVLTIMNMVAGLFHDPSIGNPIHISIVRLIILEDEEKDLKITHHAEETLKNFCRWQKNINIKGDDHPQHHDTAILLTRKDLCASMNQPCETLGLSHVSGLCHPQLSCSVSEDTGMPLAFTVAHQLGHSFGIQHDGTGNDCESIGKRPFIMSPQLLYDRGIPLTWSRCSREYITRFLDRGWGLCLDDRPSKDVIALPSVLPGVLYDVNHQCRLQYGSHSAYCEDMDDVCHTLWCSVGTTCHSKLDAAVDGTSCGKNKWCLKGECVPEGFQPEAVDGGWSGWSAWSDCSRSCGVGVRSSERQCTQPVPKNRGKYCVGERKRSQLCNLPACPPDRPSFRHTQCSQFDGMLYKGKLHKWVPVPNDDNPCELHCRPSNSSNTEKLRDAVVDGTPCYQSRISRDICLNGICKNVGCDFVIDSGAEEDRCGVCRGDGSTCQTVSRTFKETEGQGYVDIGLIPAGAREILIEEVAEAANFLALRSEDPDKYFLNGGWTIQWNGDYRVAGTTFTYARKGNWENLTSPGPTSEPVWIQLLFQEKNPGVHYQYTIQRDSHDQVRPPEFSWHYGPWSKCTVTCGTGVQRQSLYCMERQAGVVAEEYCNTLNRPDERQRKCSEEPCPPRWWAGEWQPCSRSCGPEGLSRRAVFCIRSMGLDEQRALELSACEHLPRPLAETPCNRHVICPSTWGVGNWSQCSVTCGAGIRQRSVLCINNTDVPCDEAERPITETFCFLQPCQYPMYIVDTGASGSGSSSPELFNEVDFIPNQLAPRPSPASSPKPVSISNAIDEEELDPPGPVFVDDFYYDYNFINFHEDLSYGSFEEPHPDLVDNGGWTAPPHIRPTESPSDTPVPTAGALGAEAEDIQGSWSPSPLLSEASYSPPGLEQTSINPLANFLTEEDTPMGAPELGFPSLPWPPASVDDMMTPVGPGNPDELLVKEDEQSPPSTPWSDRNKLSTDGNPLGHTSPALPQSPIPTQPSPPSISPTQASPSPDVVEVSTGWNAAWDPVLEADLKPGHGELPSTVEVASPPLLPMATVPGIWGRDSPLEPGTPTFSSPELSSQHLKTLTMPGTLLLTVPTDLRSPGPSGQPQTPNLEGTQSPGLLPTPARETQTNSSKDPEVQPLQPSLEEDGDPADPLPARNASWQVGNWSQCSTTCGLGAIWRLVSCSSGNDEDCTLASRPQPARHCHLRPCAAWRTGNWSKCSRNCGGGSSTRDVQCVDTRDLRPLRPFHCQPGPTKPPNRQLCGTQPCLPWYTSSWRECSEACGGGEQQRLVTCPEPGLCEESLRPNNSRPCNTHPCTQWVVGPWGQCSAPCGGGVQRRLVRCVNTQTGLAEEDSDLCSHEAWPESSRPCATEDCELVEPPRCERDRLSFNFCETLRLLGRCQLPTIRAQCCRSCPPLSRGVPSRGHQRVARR
- procedure_text: TMT10 TAILS N-terminomics, SMC1 experiment (Ad-mADAMTS7 WT vs EQ vs Luc, technical replicates, trypsin digest)
- Format: cell-based
- run_conditions: TAILS neo-N-terminal peptide abundance; log fold change, Ad-mADAMTS7 EQ over Luc
Square brackets hold non-standard residues; d marks the D form. Ends that are not written are not given here. deamidated = deamidated asparagine; Met(O) = CS(=O)CC[C@H](N)C(=O)O
Can you tell me logFC.mEQ.over.Luc for the items I'm about to list?
Answers are plain numbers.

[[record]]
substance = "GALNT2_31 (LAGGAGGGAGR; listed as Homo sapiens)"
property = "logFC.mEQ.over.Luc"
quantitative_result = "−0.43"


List the reported logFC.mEQ.over.Luc of each substance below.
1. EFEMP1_125 (VAGPEMQTGR; listed as Homo sapiens)
2. LTBP2_1371 (SGQKGHAPCSSVLGR; listed as Homo sapiens)
3. LGALS1_53 (HGDANTIVCNSKDGGAWGTEQR; listed as Homo sapiens)
4. OS9_55 (SQSSDVVIVSSKYKQR; listed as Homo sapiens)
5. PSAP_171 (F[Met(O)]ANIPLLLYPQDGPR; listed as Homo sapiens)
6. PXDN_1341 (SYQEDKPTKKTR; listed as Homo sapiens)

(A)
1. −0.33
2. 0.31
3. 0.94
4. −0.06
5. 0.10
6. 1.36

List the reported logFC.mEQ.over.Luc of each substance below.
1. LTBP2_533 (SGEPPRPLPPAAPR; listed as Homo sapiens)
2. AEBP1_37 (FLEGFLSELEPEPR; listed as Homo sapiens)
3. COL5A1_544 (SQAQAILQQAR; listed as Homo sapiens)
4. OS9_54 ([code q]SQSSDVVIVSSKYKQR; also: modified N-terminal Gln; listed as Homo sapiens)
5. LOXL2_37 (FQQPAPEYHQPQAPANVAKIQLR; listed as Homo sapiens)
6. FLNA_695 (FTVDAKHGGKAPLR; listed as Homo sapiens)
7. MMP1_24 (LETQEQDVDLVQKYLEKYYNLKN(deamidated)DGR; listed as Homo sapiens)
8. HSPG2_4075 (GCVGEVSVNGKR; listed as Homo sapiens)

(A)
0.28
−0.18
−0.21
−0.14
0.09
−0.25
−0.08
0.02

List the reported logFC.mEQ.over.Luc of each substance below.
1. MAP1B_1065 (LTTPTKQLGAQSPGR; listed as Homo sapiens)
2. LOX_81 (NASAQQPR; listed as Homo sapiens)
3. COL4A2_71 (YNGPPGLQGFPGLQGR; listed as Homo sapiens)
4. HSPG2_4021 (LNKDGSLR; listed as Homo sapiens)
5. COL1A2_1028 (LQGLPGIAGHHGDQGAPGSVGPAGPR; listed as Homo sapiens)

(A)
["−0.20", "−0.30", "−0.37", "−0.02", "−0.28"]

---

- assayed_target: mouse ADAMTS7 (Mus musculus, UniProt Q68SA9, E373Q)
- Construct: Full-length mouse Adamts7 1-1857 (Uniprot Q68SA9, WT or E373Q catalytic mutant); expressed in transfected cells; host or cells: Human Coronary Artery Smooth Muscle Cells (HCA-SMC, Lonza), adenovirus 50 MOI
- Sequence (Q68SA9 221-1657 E373Q): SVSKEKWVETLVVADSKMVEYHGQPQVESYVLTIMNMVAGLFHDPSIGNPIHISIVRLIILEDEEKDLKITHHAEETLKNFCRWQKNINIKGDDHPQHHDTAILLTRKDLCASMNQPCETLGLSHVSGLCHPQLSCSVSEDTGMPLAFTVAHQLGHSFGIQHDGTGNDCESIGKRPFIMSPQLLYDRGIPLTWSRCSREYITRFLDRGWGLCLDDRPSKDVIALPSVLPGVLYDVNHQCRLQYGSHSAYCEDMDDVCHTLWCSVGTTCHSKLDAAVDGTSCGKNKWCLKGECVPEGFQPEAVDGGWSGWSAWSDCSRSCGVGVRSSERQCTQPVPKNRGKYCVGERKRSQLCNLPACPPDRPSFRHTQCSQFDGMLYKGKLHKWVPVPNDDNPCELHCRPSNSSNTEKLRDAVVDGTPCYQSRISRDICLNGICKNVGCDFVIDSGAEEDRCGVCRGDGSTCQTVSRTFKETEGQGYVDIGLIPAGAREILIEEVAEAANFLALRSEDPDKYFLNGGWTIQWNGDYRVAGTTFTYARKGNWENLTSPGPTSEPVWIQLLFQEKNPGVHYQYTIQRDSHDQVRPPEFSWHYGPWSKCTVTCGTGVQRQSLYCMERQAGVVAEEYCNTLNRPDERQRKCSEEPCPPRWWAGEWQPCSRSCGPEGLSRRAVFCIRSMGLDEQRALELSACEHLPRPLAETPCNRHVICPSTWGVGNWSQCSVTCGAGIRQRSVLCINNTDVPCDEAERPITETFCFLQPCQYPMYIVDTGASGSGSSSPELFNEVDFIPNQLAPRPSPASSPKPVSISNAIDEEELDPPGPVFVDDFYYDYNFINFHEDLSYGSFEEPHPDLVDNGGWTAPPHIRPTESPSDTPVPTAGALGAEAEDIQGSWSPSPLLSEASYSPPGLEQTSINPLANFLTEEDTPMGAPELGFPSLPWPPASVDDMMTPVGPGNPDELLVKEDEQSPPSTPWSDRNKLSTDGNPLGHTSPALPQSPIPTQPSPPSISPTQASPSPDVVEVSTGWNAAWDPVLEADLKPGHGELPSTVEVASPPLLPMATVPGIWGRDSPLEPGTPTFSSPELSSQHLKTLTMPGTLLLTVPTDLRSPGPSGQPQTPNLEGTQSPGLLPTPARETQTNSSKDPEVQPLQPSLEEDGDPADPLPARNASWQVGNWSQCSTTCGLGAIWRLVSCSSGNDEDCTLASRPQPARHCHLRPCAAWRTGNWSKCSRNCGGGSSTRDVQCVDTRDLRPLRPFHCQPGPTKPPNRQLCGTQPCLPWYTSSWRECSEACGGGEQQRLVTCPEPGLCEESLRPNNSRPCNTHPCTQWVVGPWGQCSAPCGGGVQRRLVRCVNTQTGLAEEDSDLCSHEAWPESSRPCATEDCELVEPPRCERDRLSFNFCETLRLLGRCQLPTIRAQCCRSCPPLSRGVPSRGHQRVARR
- procedure_text: TMT10 TAILS N-terminomics, HUVEC experiment (process replicates, trypsin/AspN digest)
- Assay type: cell-based, human
- run_conditions: HUVEC TAILS HC; log fold change of N-terminal peptide, Ad-mADAMTS7 EQ over Luc
Field 'label' (enum: yes (1) / no (0)). Set to yes (1) when logFC.mEQ.over.Luc is strictly under -0.08; else no (0).

Examples from the recorded data:
[[record]]
substance = "NUCB1_317 (FLASTQR; listed as Homo sapiens)"
assayed_target = "mouse ADAMTS7 (Mus musculus, UniProt Q68SA9, E373Q)"
class_name = "no (0)"

[[record]]
substance = "THBS2_290 (LSENLKR; listed as Homo sapiens)"
assayed_target = "mouse ADAMTS7 (Mus musculus, UniProt Q68SA9, E373Q)"
class_name = "no (0)"

[[record]]
substance = "LTBP3_208 (FLVPLGPGQISA; listed as Homo sapiens)"
assayed_target = "mouse ADAMTS7 (Mus musculus, UniProt Q68SA9, E373Q)"
class_name = "yes (1)"

[[record]]
substance = "SPOCK1_27 (LAGGAGPNHGNFL; listed as Homo sapiens)"
assayed_target = "mouse ADAMTS7 (Mus musculus, UniProt Q68SA9, E373Q)"
class_name = "yes (1)"

[[record]]
substance = "CTGF_174 (VVGPALAAYR; listed as Homo sapiens)"
assayed_target = "mouse ADAMTS7 (Mus musculus, UniProt Q68SA9, E373Q)"
class_name = "yes (1)"

[[record]]
substance = "LTBP3_164 (LSTGALPPLAPEG; listed as Homo sapiens)"
assayed_target = "mouse ADAMTS7 (Mus musculus, UniProt Q68SA9, E373Q)"
class_name = "yes (1)"


Then there is this substance:
(Q) Is logFC.mEQ.over.Luc strictly under -0.08 for the entry FSTL1_290 (LQKHQETA; listed as Homo sapiens) ?
(A) yes (1)

Recorded values, source patent US20240368668A1.
